The reported measurements were obtained from paper PMC6384562.

# target-or-system: soluble epoxide hydrolase (sEH) (Homo sapiens)
# Sequence (P34913 whole entry): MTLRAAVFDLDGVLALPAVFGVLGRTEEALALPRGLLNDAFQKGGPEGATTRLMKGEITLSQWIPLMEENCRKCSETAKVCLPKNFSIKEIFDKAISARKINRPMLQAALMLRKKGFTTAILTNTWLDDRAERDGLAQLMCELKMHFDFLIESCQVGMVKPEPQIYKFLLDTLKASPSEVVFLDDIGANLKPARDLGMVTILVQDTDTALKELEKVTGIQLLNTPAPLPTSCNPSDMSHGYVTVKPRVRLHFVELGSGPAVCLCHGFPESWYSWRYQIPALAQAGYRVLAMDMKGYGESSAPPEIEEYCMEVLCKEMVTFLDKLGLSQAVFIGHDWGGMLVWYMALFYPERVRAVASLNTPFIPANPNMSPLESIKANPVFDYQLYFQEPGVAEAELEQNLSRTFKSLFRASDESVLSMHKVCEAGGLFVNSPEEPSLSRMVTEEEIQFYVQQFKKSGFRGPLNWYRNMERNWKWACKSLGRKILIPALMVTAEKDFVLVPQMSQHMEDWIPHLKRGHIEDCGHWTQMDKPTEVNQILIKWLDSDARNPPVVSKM
# run-description: fluorescence assay with recombinant human sEH and PHOME substrate
pIC50: −log10 of the molar value.
outcome-measure: pIC50

- compound: "C=CCc1cc(OC)c(O[C@@H]2O[C@H](CO)[C@@H](O)[C@H](O)[C@H]2O)c(OC)c1 [compound 5, erigeside II]"
  outcome-measure: "pIC50"
  value-measured: 4.23
